Molecular target: CHO-CHOP luciferase reporter, UPR activation, luminescence
Assay: CHOP reporter induction, apoptotic UPR branch – CHO-CHOP cells, luciferase luminescence, confirmation (AID 489024);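 note: compounds added alone to reporter cells with no tunicamycin stress co-treatment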
Activity calls are given as the source filed them.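 Rule for the calls: active = compounds whose mean EC50, the dose giving half the maximal reporter activation, is at or below a set limit; inactive = the rest.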
Possible outcomes: 1 (active), -1 (inactive)

> print(dat)
                            molecule.smiles  group
1        Cc1cccnc1Nc1nc(-c2ccc(O)c(O)c2)cs1      1
2  O=[N+]([O-])c1ccc(C=Nc2ccc(Cl)c([N+](=O)[O-])c2)s1     -1
3  O=C(N/N=C/c1cccc([N+](=O)[O-])c1)c1cc2c(ccc3ccccc32)o1     -1
4           CC(C)(C)N1CSC(=S)N(Cc2ccccc2)C1      1
5  CCc1nnc(NC(=O)CSc2nc(-c3ccccc3)cc(-c3ccc(OC)cc3)c2C#N)s1      1
